Data provenance: ChEMBL document CHEMBL5058577

# System: Fibroblast
# Assay Overview: Multiplex assay against human fibroblast
# Assay type: toxicity, cell-based
# Run Parameters: 12 h, 1 µM, compound concentration 1 uM, replicate 2
Returns one of criterion met or criterion not met; criterion met when Population Hoechst High Intensity Objects (%) is >= 4%.

These recorded examples may help you get a feel for the data.
- CCn1c(-c2nc3cc(C(=O)N4CCCC(N)C4)ccc3n2C)cc2ccccc21.Cl (stereo not given): criterion met
- COc1cc(C(=O)N2CC[C@@H](O)[C@@H](N)C2)cc2nc(-c3cc4ccccc4n3CC3CC3)n(C)c12.Cl: criterion not met
- C[C@H](NC(=O)CNC(=O)c1cccc(Cl)c1)c1ccccc1: criterion not met
- Cc1nn(C)c2nc(NNC(=O)Nc3cc(Cl)nc(Cl)c3)cc(C(C)C)c12: criterion not met
- Cc1cc(=O)n(C)c2cc(N3C(=O)CC[C@H](NS(=O)(=O)CC(C)C)[C@H]3c3ccc(Cl)cc3)ccc12: criterion met

Does Population Hoechst High Intensity Objects (%) meet or surpass 4% for `COc1ccc2c(c1OCc1ccccc1)C[C@@H](C(=O)O)N(C(=O)C(c1ccccc1)c1ccccc1)C2` ?
criterion not met

Now the molecule `Cc1sc2c(c1C)C(c1ccc(Cl)cc1)=N[C@H](CC(=O)OC(C)(C)C)c1nnc(C)n1-2`
criterion met

Now the molecule `Nc1nc(-c2ccco2)c2cnn(Cc3ccccc3F)c2n1`
criterion met

Now the molecule Cl.Cl.OCCOCCN1CCN(C(c2ccccc2)c2ccc(Cl)cc2)CC1 (stereo not given) [HYDROXYZINE HYDROCHLORIDE]
criterion met

Now the molecule `Cc1cc(O)c(-c2ccc([C@@H](C)CN(C)C)cc2)c2c1[nH]c(=O)c1sccc12`
criterion not met

====

Below: a set of entries, each annotated with reported Population Fragmented Nuclei (%).
# Tested on: Fibroblast
# Assay Overview: Multiplex assay against human fibroblast
# Type: toxicity, cell-based
# Run Parameters: 48 h, 1 µM, compound concentration 1 uM, replicate 1
Please append the unit to your numeric answer.

- O=c1ccc2ccc(OCCCCN3CCN(c4cccc5sccc45)CC3)cc2[nH]1 [BREXPIPRAZOLE]: 24%

So what Population Fragmented Nuclei (%) did `C[C@@H]1CC(=O)Nc2cccc(-c3ccc4c(c3)c(-c3cnn(C)c3)nn4C)c2N1` get with Fibroblast?
25%

Now the compound CCCCCCNC(=O)Nc1ccc(S(=O)(=O)Nc2ccc(CCNC[C@H](O)COc3ccc(O)cc3)cc2)cc1 [L-755507]
28%

====

# Tested on: Fibroblast
# Assay Overview: Multiplex assay against human fibroblast
# Format: toxicity, cell-based
# Run Parameters: 24 h, 1 µM, compound concentration 1 uM, replicate 1
Reported Property: Population Membrane Permeable-Phenotype (%)
Give the quantity in %, number only.

What does the record list as Population Membrane Permeable-Phenotype (%) for `C[C@H](NC(=O)CNC(=O)c1cccc(Cl)c1)c1ccccc1` ?
1

Now the molecule COCCCN1CCC(NC(=O)c2cc(Cl)c(N)c3c2OCC3)CC1 [PRUCALOPRIDE]
0

Now the molecule `Cn1cc(C(=O)OCC2CCN(CCNS(C)(=O)=O)CC2)c2ccccc21`
0

Now the molecule CCC(=O)OCC(=O)[C@@]1(OC(=O)CC)[C@@H](C)C[C@H]2[C@@H]3CCC4=CC(=O)C=C[C@]4(C)[C@@]3(Cl)[C@@H](O)C[C@@]21C [BECLOMETHASONE DIPROPIONATE]
3

Now the molecule `CCCCC[C@H](O)/C=C/[C@H]1[C@H](O)CC(=O)[C@@H]1CCCCCCC(=O)O`
0

Now the molecule `Cc1sc2c(c1C)C(c1ccc(Cl)cc1)=N[C@H](CC(=O)OC(C)(C)C)c1nnc(C)n1-2`
0

Now the molecule `COC(c1ccccc1)(c1ccccc1)[C@H](Oc1nc(C)cc(C)n1)C(=O)O`
0

Now the molecule `S=C(NCCCc1c[nH]cn1)NCCCN(Cc1ccc(Cl)c(Cl)c1)c1ccc(Br)cn1`
2

====

# System: U2OS
# Assay Overview: Multiplex assay against U2OS
# Format: toxicity, cell-based
# Run Parameters: human, 24 h, 1 µM, compound concentration 1 uM, replicate 1
Checkbox rule: Population Hoechst High Intensity Objects (%) lower than 1% = 1; Population Hoechst High Intensity Objects (%) not lower than 1% = 0.

* Cc1ccc(OCC(O)C(C)NC(C)C)c2c1CCC2.Cl (stereo not drawn) | 1
* CN1CCC(C(=O)c2cccc(NC(=O)c3c(F)cc(F)cc3F)n2)CC1 | 0
* COCCn1c(C)c(C)s/c1=N\C(=O)C1C(C)(C)C1(C)C | 1
* O=C(Nc1cc(-c2ccccc2)nn1-c1ccccc1F)c1ccc([N+](=O)[O-])cc1 | 0
* COc1cc(C(=O)N2CC[C@@H](O)[C@@H](N)C2)cc2nc(-c3cc4ccccc4n3CC3CC3)n(C)c12.Cl | 0

Input `Cc1sc2c(c1C)C(c1ccc(Cl)cc1)=N[C@H](CC(=O)OC(C)(C)C)c1nnc(C)n1-2` ; condition: Population Hoechst High Intensity Objects (%) strictly below 1%. Does it hold?
1

Now the compound CN(C)C/C=C/C(=O)Nc1ccc(C(=O)N2CCCC(Nc3ncc(Cl)c(-c4c[nH]c5ccccc45)n3)C2)cc1 (stereo not drawn)
0

Now the compound `OCCCNc1cc(-c2ccnc(Nc3cccc(Cl)c3)n2)ccn1`
0

Now the compound `Cc1cc(O)c(-c2ccc([C@@H](C)CN(C)C)cc2)c2c1[nH]c(=O)c1sccc12`
0

Now the compound `S=C(NCCCc1c[nH]cn1)NCCCN(Cc1ccc(Cl)c(Cl)c1)c1ccc(Br)cn1`
0

Now the compound `Cc1nn(C)c2nc(NNC(=O)Nc3cc(Cl)nc(Cl)c3)cc(C(C)C)c12`
1

====

Below: a set of entries, each annotated with reported Population Mitochondria Different-Phenotype (%).
# Tested on: Fibroblast
# Assay Overview: Multiplex assay against human fibroblast
# Format: toxicity, cell-based
# Run Parameters: 24 h, 1 µM, compound concentration 1 uM, replicate 1
Give the quantity in %, number only.

* COc1c(Nc2ccc(S(C)(=O)=O)nc2C)ncnc1OC1CCN(C(=O)OC(C)C)CC1 [ADP-597] | 1
* CCCCC[C@H](O)/C=C/[C@H]1[C@H](O)CC(=O)[C@@H]1CCCCCCC(=O)O [ALPROSTADIL] | 1
* COc1ccc2c(c1OCc1ccccc1)C[C@@H](C(=O)O)N(C(=O)C(c1ccccc1)c1ccccc1)C2 [OLODANRIGAN] | 1
* CC(F)(F)CN1CCOc2c(nn(-c3ccccc3Cl)c2-c2ccc(Cl)cc2)C1=O | 2

Turning now to a further record.
What does the record list as Population Mitochondria Different-Phenotype (%) for `CCc1nn2c(C)cc(C)nc2c1Cc1ccc(-c2nnc(C3CCNCC3)o2)cc1` ?
3

====

Below: a set of entries, each annotated with reported Population Tubulin-Different-Phenotype (%).
# Test system: HEK-293T
# Assay Overview: Multiplex assay against HEK293T
# Type: toxicity, cell-based
# Run Parameters: human, 12 h, 1 µM, compound concentration 1 uM, replicate 2
Please append the unit to your numeric answer.

Here's what some known entries look like.
• CCCCCCNC(=O)Nc1ccc(S(=O)(=O)Nc2ccc(CCNC[C@H](O)COc3ccc(O)cc3)cc2)cc1 = 32%
• COc1c(Nc2ccc(S(C)(=O)=O)nc2C)ncnc1OC1CCN(C(=O)OC(C)C)CC1 = 25%
• CCc1nn2c(C)cc(C)nc2c1Cc1ccc(-c2nnc(C3CCNCC3)o2)cc1 = 19%
• COc1ccc2c(c1OCc1ccccc1)C[C@@H](C(=O)O)N(C(=O)C(c1ccccc1)c1ccccc1)C2 = 17%
• O=c1ccc2ccc(OCCCCN3CCN(c4cccc5sccc45)CC3)cc2[nH]1 = 47%
• O=c1nc2[nH]c3ccccc3nc-2c(=O)[nH]1 = 25%
• COc1cc(OC2CCN(C(C)=O)CC2)ccc1C(=O)N1CCC(N2C(=O)OCc3ccccc32)CC1 = 21%

So what Population Tubulin-Different-Phenotype (%) did `COc1cc(C(=O)N2CC[C@@H](O)[C@@H](N)C2)cc2nc(-c3cc4ccccc4n3CC3CC3)n(C)c12.Cl` get with HEK-293T?
37%

====

# Test system: U2OS
# Assay Overview: Multiplex assay against U2OS
# Assay type: toxicity, cell-based
# Run Parameters: human, 48 h, 10 µM, compound concentration 10 uM, replicate 1
Reported Property: Population Hoechst High Intensity Objects (%)
Give the quantity in %, number only.

Here's what some known entries look like.
* COc1cc2nc(N3CCN(C(=O)c4ccco4)CC3)nc(N)c2cc1OC.Cl [PRAZOSIN HYDROCHLORIDE] | 1
* Cc1nn(C)c2nc(NNC(=O)Nc3cc(Cl)nc(Cl)c3)cc(C(C)C)c12 | 9
* CN1CCN(c2ccc(Nc3c4ccccc4nc4ccccc34)cc2)CC1.Cl.Cl.O | 18
* Cl.Cl.OCCOCCN1CCN(C(c2ccccc2)c2ccc(Cl)cc2)CC1 (stereo not given) [HYDROXYZINE HYDROCHLORIDE] | 2

Turning now to a further record.
What does the record list as Population Hoechst High Intensity Objects (%) for CN1C[C@H](C(=O)N[C@]2(C)O[C@@]3(O)[C@@H]4CCCN4C(=O)[C@H](Cc4ccccc4)N3C2=O)C[C@@H]2c3cccc4[nH]cc(c34)C[C@H]21.CS(=O)(=O)O [DIHYDROERGOTAMINE MESYLATE] ?
3
